Readings of pEC50 for the listed molecules
Test system: Hepatitis C virus
Assay: Antiviral activity against HCV in human Huh-luc/neo7 cells after 72 hrs by luciferase reporter gene assay
Format: functional, organism-based, Hepacivirus hominis
pEC50: −log10 of the molar value.
ASSAY_READOUT: pEC50

1. O=C(NO)c1cccc(Cl)c1 :: 5.00
2. COc1ccc(C)cc1C(=O)NO :: 5.00
3. COc1ccc([N+](=O)[O-])cc1C(=O)NO :: 5.52

====

Readings of CC50 at 72 h for the listed compounds
Test: Cytotoxicity against human HuH7 cells expressing luc/neo after 72 hrs by MTT assay
Type: cell-based, Huh-7
ASSAY_READOUT: CC50 at 72 h

1) COc1ccccc1/C(N)=N/O :: > 800 µM
2) COc1ccc(C)cc1C(=O)NO :: 800 µM
3) COc1cccc(C(=O)NO)c1 :: 570 µM
4) O=C(NO)c1ccccc1Cl :: 330 µM
5) CCCCOc1ccccc1C(=O)NO :: 380 µM
6) COc1ccccc1C(N)=O :: > 800 µM
7) NC(=O)c1ccccc1O [SALICYLAMIDE] :: > 800 µM
8) O=C(NO)c1ccccc1[N+](=O)[O-] :: 55 µM
9) Cc1ccc(C(=O)NO)cc1 :: 110 µM
10) CN(O)C(=O)c1ccccc1 :: 400 µM
11) CN(O)C(=O)c1ccccc1O :: > 800 µM
12) O=C(NO)c1ccc(Cl)cc1Cl :: 140 µM
13) COc1ccc([N+](=O)[O-])cc1C(=O)NO :: 350 µM
14) CONC(=O)c1ccccc1O :: > 800 µM
15) Cc1ccc(C(=O)NO)c(Cl)c1 :: 140 µM
16) Cc1cc(Br)ccc1C(=O)NO :: 120 µM

====

Tested on: Hepatitis C virus
Experiment: Antiviral activity against HCV in human Huh-luc/neo7 cells after 72 hrs by luciferase reporter gene assay
Type: functional, organism-based, Hepacivirus hominis
ASSAY_READOUT: EC50 (µM)

1. O=C(NO)c1ccccc1F :: 15
2. O=C(NO)c1cccc(Br)c1 :: 12
3. NC(=NO)c1ccccc1 :: 270
4. O=C(NO)c1ccc(Br)cc1 :: 2
5. O=C(NO)c1cccc([N+](=O)[O-])c1 :: 5
6. Cc1cccc(C(=O)NO)c1 :: 20
7. COc1ccc(C(=O)NO)cc1 :: 12
8. O=C(NO)c1ccc(Cl)cc1Cl :: 0.8
9. O=C(NO)c1ccc([N+](=O)[O-])cc1 :: 3
10. Cc1ccccc1C(=O)NO :: 85
11. O=C(NO)c1ccccc1OCCOc1ccccc1C(=O)NO :: 35
12. COc1cccc(OC)c1C(=O)NO :: 50
13. O=C(NO)c1ccccc1Br :: 3
14. O=C(NO)c1cc([N+](=O)[O-])ccc1O :: 160
15. COc1cc(C)ccc1C(=O)NO :: 15
16. N/C(=N\O)c1ccccc1O :: 140
17. COc1cccc(C(=O)NO)c1 :: 70
18. Cc1ccc(C(=O)NO)cc1 :: 8
19. CCCCOc1ccccc1C(=O)NO :: 10
20. Cc1ccc(C(=O)NO)c(Cl)c1 :: 1.5
21. O=C(NO)c1ccccc1Cl :: 2
22. Cc1cc(Br)ccc1C(=O)NO :: 0.5
23. COCc1ccccc1C(=O)NO :: 170
24. O=C(NO)c1ccccc1[N+](=O)[O-] :: 1
25. O=C(NO)c1ccc(Cl)cc1 :: 3
26. CN(O)C(=O)c1ccccc1 :: 65

Every entry's value here was drawn from ChEMBL document CHEMBL2434962.
